FYI, the data here is from ChEMBL document CHEMBL1141480.

measurement.protocol: Half life in dog at 5 mg/kg, po
Type: ADME, organism-based, Canis lupus familiaris
Design: dose 5 mg/kg, route oral
recorded.conditions: in vivo
readout: half-life (h)
One number for each entry, in h.

Enquiry: Look at this molecule and give its reported half-life. CC(C)(F)C[C@H](N[C@@H](c1ccc(-c2ccc(S(C)(=O)=O)cc2)cc1)C(F)(F)F)C(=O)NC1(C#N)CC1 [ODANACATIB]
Return: 57

====

measurement.protocol: Clearance in monkey
Assay type: ADME, organism-based, Macaca mulatta
recorded.conditions: rhesus monkey, in vivo
readout: clearance (mL/min/kg)
Give bare numbers, in mL/min/kg.

Enquiry: Look at this compound and give its reported clearance. CC(C)C[C@H](N[C@@H](c1ccc(-c2ccc(S(C)(=O)=O)cc2)cc1)C(F)(F)F)C(=O)NCC#N
Return: 7.5
